Molecular target: T1, PUF4 RNA-binding domain (Saccharomyces cerevisiae, UniProt P25339 537-888)
T1 sequence: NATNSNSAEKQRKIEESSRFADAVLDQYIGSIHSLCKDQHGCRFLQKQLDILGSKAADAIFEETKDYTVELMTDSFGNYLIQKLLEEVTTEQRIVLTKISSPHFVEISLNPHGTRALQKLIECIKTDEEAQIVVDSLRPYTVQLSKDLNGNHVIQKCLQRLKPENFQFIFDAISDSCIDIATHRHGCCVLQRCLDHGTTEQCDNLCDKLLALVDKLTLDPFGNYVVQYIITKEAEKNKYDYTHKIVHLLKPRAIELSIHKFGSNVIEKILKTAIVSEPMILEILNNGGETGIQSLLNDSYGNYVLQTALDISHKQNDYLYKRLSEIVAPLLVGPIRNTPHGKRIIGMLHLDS
Experiment: Mg; RNA-MaP; 20 mM Na-HEPES pH 7.4, 30 mM KOAc, 0.75 mM MgCl2, 0.1% Tween-20, 5% glycerol, 0.1 mg/mL BSA, 2 mM DTT; 25 C; 0.0125-409.6 nM protein
Details: tags: N-His6-TEV cleaved; C-SNAP kept, Cy3B-labelled; label: tethered on chip by stalled RNA polymerase
pKd: −log10 of the molar value.
Recorded pKd, one value per entry.
attribute-measured: pKd

>>> numeric_value("UCUCUUUGUGUAUCUCUCUU (ssRNA) [Ib_S1_P3E.1_K3.1_C3.1_H3.1_[A4G]_A3.1_F3.1_[A8C]_T3.1]")
7.20
>>> numeric_value("Id_ii_S4_P5E.3_K5.2_C5.2_[T-1A]_H5.2_A5.1_F5.1_T5.2_[T11C]_[A12C] (ssRNA) RNA: UUUGACAACUGAUCGUUCUUUCUCAUAUAUUAUUACCUUCUUUCUCGAUCAGUUGUCUUU")
6.93
>>> numeric_value("Ic_S2_P3E.1_K3.1_C3.1_H3.1_A3.1_[T5G]_[A6C]_F3.1_[T7G]_[A8T]_T3.1 (ssRNA) RNA: UUUGAUUAAUAUGAUAUCGUUCUUUCUUGUAGCGUUUCUUUCUCGAUAUCAUAUUAAUCUUU")
6.79
